test system: THP-1 viability, CellTiter-Glo luminescence, 72 h; assay: PubChem AID 2252
REPORTED PROPERTY: EC50

Worked examples follow.
# CHEMICAL STRING, TARGET OR SYSTEM, EC50
measured = [
    ("CCCOc1ccc(C(=O)NNC(=S)NC(C)=O)cc1", "THP-1 viability, CellTiter-Glo luminescence, 72 h", "5.29 µM"),
    ("O=C(Cc1ccc([N+](=O)[O-])cc1)N/N=C/c1ccc([N+](=O)[O-])o1", "THP-1 viability, CellTiter-Glo luminescence, 72 h", "12.1 µM"),
    ("O=C(N/N=C/c1cc(Cl)ccc1O)c1ccncc1", "THP-1 viability, CellTiter-Glo luminescence, 72 h", "6.13 µM"),
    ("Cc1cc(/C=C\\c2ccc3cc(N(C)C)ccc3[n+]2C)c(C)n1-c1ccccc1", "THP-1 viability, CellTiter-Glo luminescence, 72 h", "4.95 µM"),
    ("COc1ccccc1Nc1nc(NCc2ccco2)c2ccccc2n1", "THP-1 viability, CellTiter-Glo luminescence, 72 h", "13.3 µM"),
    ("Cc1ccc2nc(N(CCCN(C)C)C(=O)c3sc4ccccc4c3Cl)sc2c1", "THP-1 viability, CellTiter-Glo luminescence, 72 h", "28.1 µM"),
    ("c1ccc(CN2CCC(Nc3nc(-c4ccccc4)nc4ccccc34)CC2)cc1", "THP-1 viability, CellTiter-Glo luminescence, 72 h", "17.6 µM"),
    ("C#CCOCCOCCOCCNc1nc(N2CCN(C(=O)CCCCCCCCCCNC(=O)[C@@H](CCSC)n3cc(CCO)nn3)CC2)nc(N2CCN(C(=O)CCCCCCCCCCNC(=O)[C@H]([C@@H](C)CC)n3cc(CCCCN=C(N)N)nn3)CC2)n1", "THP-1 viability, CellTiter-Glo luminescence, 72 h", "9.78 µM"),
    ("Fc1cccc(Nc2c3c(nc4ccccc24)CCC3)c1", "THP-1 viability, CellTiter-Glo luminescence, 72 h", "26.3 µM"),
    ("C#CCOCCOCCOCCNc1nc(N2CCN(C(=O)CCCCCCCCCCNC(=O)[C@H]([C@@H](C)CC)n3cc(CCCCCN)nn3)CC2)nc(N2CCN(C(=O)CCCCCCCCCCNC(=O)[C@H]([C@@H](C)CC)n3cc(CCCCN=C(N)N)nn3)CC2)n1", "THP-1 viability, CellTiter-Glo luminescence, 72 h", "5.17 µM"),
]

Input line: Give a short answer stating reported EC50 for COc1ccc2sc(N(CCCN(C)C)C(=O)c3ccc(S(=O)(=O)N4CCc5ccccc5C4)cc3)nc2c1 .
Output line: 4.42 µM

Input line: Give a short answer stating reported EC50 for Cc1cc(N/N=C/c2ccc(F)cc2)nc(NCc2ccccc2)n1 .
Output line: 22.5 µM

Input line: Give a short answer stating reported EC50 for ON=C1/C(=N\O)CC2(C/C1=N/O)OCCO2 .
Output line: 33.2 µM

Input line: Give a short answer stating reported EC50 for Cc1ccc(C(=O)NCCN2C3=NC[C@@H](Cc4ccccc4)N3C[C@H]2Cc2ccc(O)cc2)cc1Br .
Output line: 8.09 µM

Input line: Give a short answer stating reported EC50 for O=S1(=O)CC=C(CSc2nc3ccccc3[nH]2)C1 .
Output line: < 0.1 µM

Input line: Give a short answer stating reported EC50 for O=C(NC(=S)NNC(=O)c1cccs1)c1ccc(Br)o1 .
Output line: 27.5 µM
